assay: Crystal morphology assessed by microscopy; format: physicochemical
measurement_type: CRYSTAL MORPHOLOGY

CCCCN(CCCC)C(=O)CN1CC(c2ccc3c(c2)OCO3)C(C(=O)O)C1c1ccc(OC)cc1.CCCCN(CCCC)C(=O)CN1CC(c2ccc3c(c2)OCO3)C(C(=O)O)C1c1ccc(OC)cc1.O=C(O)C(O)c1ccccc1 (centres unmarked) [S-Mandelate (2:1 Stoichiometry), Hydrate]	Prism
CCCCN(CCCC)C(=O)CN1CC(c2ccc3c(c2)OCO3)C(C(=O)O)C1c1ccc(OC)cc1.O=C(O)C(O)c1ccccc1 (centres unmarked)	Prism
CCCCN(CCCC)C(=O)CN1C[C@H](c2ccc3c(c2)OCO3)[C@@H](C(=O)O)[C@@H]1c1ccc(OC)cc1.Cl	Needle
CCCCN(CCCC)C(=O)CN1C[C@H](c2ccc3c(c2)OCO3)[C@@H](C(=O)O)[C@@H]1c1ccc(OC)cc1 [Parent, Quarter-hydrate]	Needle
CCCCN.CCCCN(CCCC)C(=O)CN1CC(c2ccc3c(c2)OCO3)C(C(=O)O)C1c1ccc(OC)cc1 (centres unmarked)	Bar

Read off the recorded CRYSTAL MORPHOLOGY for CCCCN(CCCC)C(=O)CN1CC(c2ccc3c(c2)OCO3)C(C(=O)O)C1c1ccc(OC)cc1.O.O=S(=O)(O)O (centres unmarked) Needle

Item CCCCN(CCCC)C(=O)CN1C[C@H](c2ccc3c(c2)OCO3)[C@@H](C(=O)O)[C@@H]1c1ccc(OC)cc1 [Parent, Anhydrate] : provide CRYSTAL MORPHOLOGY Needle

Hello, please tell me recorded CRYSTAL MORPHOLOGY for this one: CCCCN(CCCC)C(=O)CN1CC(c2ccc3c(c2)OCO3)C(C(=O)O)C1c1ccc(OC)cc1.Cl (centres unmarked) Needle

Hey, just so you know, these numbers are from patent US9637476B2.
